Source of measurements: the pKa sets of Baltruschat and Czodrowski (2020)

Entries and their measured pKa follow.
- assay_conditions: acidic group
Note: the reply should be a number with no unit written.

Some compounds with known pKa results, for comparison:
[
  {
    "compound": "Oc1cccc2cncnc12",
    "pKa": 8.65
  },
  {
    "compound": "C=C(C)/C=C(\\O)C=C(C)C",
    "pKa": 10.8
  },
  {
    "compound": "S=C(Nc1ccc(Br)cc1)c1ccc(Cl)cc1",
    "pKa": 10.2
  },
  {
    "compound": "Oc1c(Cl)cc(Cl)c(Cl)c1C[NH+]1CCOCC1",
    "pKa": 4.84
  },
  {
    "compound": "CCC[NH+](CCC)CCCNC(=O)/C=N/O",
    "pKa": 8.73
  },
  {
    "compound": "CCc1nc2cc3ccccc3cc2[nH]1",
    "pKa": 12.9
  },
  {
    "compound": "CNc1nc(SC)nc2[nH]ncc12",
    "pKa": 11.4
  },
  {
    "compound": "[NH3+]CCCC(=O)O",
    "pKa": 4.06
  }
]

What value of pKa has been reported for the following compound? O=C([O-])C[N+](=O)[O-]
8.9

What value of pKa has been reported for the following compound? Nc1nc2nc[nH]c2c(O)[nH+]1
3.25

What value of pKa has been reported for the following compound? N#CCc1ccc(C(=O)O)cc1
4.09

What value of pKa has been reported for the following compound? Oc1oc(-c2ccccc2)nc1Cc1ccccc1
8.72

What value of pKa has been reported for the following compound? O=C(O)c1c2ccccc2cc2ccccc12
3.65

What value of pKa has been reported for the following compound? Cc1ccc(O)cc1[S+](C)C
8.01

What value of pKa has been reported for the following compound? OCc1ccc(O)cc1
9.82

What value of pKa has been reported for the following compound? Cc1ccccc1C(O)C(C(=O)O)c1ccc(-c2ccccc2)cc1 (stereo unspecified)
4.19

What value of pKa has been reported for the following compound? OC(C[S-])CS
10.7

What value of pKa has been reported for the following compound? CN(O)C(=O)c1ccc([N+](=O)[O-])cc1
7.92

What value of pKa has been reported for the following compound? [O-]B(O)c1cccc(O)c1
10.8

What value of pKa has been reported for the following compound? O=C(Cc1ccccc1)c1cc[n+](Cc2ccc([N+](=O)[O-])cc2)cc1
8.68

---

- assay_conditions: acidic group
observable: pKa
Note: the reply should be a number with no unit written.

Some molecules with known pKa results, for comparison:
[
  {
    "molecule": "CCCCCOc1ccc(C(=O)O)cc1",
    "numeric_result": 4.49
  },
  {
    "molecule": "O=C(O)c1cccc(F)c1",
    "numeric_result": 3.9
  },
  {
    "molecule": "CCCP(=O)(O)CCC",
    "numeric_result": 3.33
  },
  {
    "molecule": "C[NH+](C)CCCCCCCNC(=O)/C=N/O",
    "numeric_result": 8.98
  },
  {
    "molecule": "O=[N+]([O-])c1ccccc1/C=N\\O",
    "numeric_result": 10.7
  },
  {
    "molecule": "O=Cc1cc(Cl)cc([N+](=O)[O-])c1O",
    "numeric_result": 4.46
  }
]

// next entry
What value of pKa has been reported for the following molecule? O=C(NO)c1cccc([N+](=O)[O-])c1
8.07
